Source listed as the supplement of paper PMC3334620.

# target.under.test: Cad1 (UniProt P24813)
# Sequence: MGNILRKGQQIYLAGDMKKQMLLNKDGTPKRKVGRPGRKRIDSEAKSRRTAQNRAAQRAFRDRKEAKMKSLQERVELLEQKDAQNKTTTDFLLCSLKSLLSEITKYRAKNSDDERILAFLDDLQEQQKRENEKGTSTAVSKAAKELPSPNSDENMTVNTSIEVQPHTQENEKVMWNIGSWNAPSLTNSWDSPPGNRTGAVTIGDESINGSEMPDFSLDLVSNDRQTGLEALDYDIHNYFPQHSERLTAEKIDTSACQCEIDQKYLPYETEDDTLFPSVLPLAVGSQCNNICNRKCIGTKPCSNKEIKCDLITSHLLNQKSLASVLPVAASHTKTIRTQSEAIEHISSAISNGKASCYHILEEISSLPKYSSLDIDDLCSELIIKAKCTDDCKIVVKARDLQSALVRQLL
# measurement.protocol: PBM E-score (8-mer binding enrichment) (E-score (-0.5 to 0.5)); higher = stronger / more preferred TF binding
# condition.label: protein concentration: 100 nM; construct: GST-full length
Whole data set: some 33,000 sequences, median “E-score (-0.5 to 0.5)” near -0.0014, cut for the highest 2% near 0.25. This excerpt belongs to a sample that is enriched for the highest values.
Please mark Met if the recorded PBM E-score is equal to or greater than 0.2, and Not met if it falls below.

- sequence.chain: "GGCGCGTA"
  label: "Not met"
- sequence.chain: "AATGCCGT"
  label: "Not met"
- sequence.chain: "GTTCGAAA"
  label: "Met"
- sequence.chain: "AACGGGAA"
  label: "Not met"
- sequence.chain: "ATAATACG"
  label: "Not met"
- sequence.chain: "AGCGCGCG"
  label: "Met"
- sequence.chain: "CGAAAAGC"
  label: "Not met"
- sequence.chain: "GCGGGTAC"
  label: "Not met"
- sequence.chain: "AGCGAAAT"
  label: "Not met"
- sequence.chain: "ACTCTCGA"
  label: "Not met"
- sequence.chain: "AGCGCGCT"
  label: "Not met"
- sequence.chain: "AACGCGCA"
  label: "Not met"
- sequence.chain: "CCAAAATA"
  label: "Not met"
- sequence.chain: "GGCGTCCC"
  label: "Not met"
- sequence.chain: "ACCATCAG"
  label: "Not met"
- sequence.chain: "TGACCGCA"
  label: "Not met"
- sequence.chain: "AACGCGCT"
  label: "Not met"
- sequence.chain: "CGCGCGCG"
  label: "Met"
- sequence.chain: "ACGCCTCT"
  label: "Not met"
- sequence.chain: "CGCGCGCA"
  label: "Met"
- sequence.chain: "ACATCGAA"
  label: "Not met"

* * *

# target.under.test: Cad1 (UniProt P24813)
# Sequence: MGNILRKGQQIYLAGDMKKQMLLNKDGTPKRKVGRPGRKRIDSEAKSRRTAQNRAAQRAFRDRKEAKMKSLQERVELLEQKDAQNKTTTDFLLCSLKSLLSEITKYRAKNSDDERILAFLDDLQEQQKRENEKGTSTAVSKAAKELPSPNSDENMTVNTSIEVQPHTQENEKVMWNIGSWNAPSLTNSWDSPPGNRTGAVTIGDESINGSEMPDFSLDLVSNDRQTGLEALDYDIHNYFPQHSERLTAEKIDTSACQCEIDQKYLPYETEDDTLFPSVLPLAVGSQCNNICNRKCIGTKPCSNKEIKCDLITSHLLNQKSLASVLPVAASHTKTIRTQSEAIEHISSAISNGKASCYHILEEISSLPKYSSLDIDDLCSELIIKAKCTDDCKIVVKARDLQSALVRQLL
# measurement.protocol: PBM E-score (8-mer binding enrichment) (E-score (-0.5 to 0.5)); higher = stronger / more preferred TF binding
# condition.label: protein concentration: 100 nM; construct: GST-full length
In all, about 33,000 sequences were measured (“E-score (-0.5 to 0.5)”: median about -0.0014, highest 2% from about 0.25 on). Only a selection was taken, and the highest values are over-represented in it overall.

- sequence.chain: "GCACCTCA"
  PBM E-score: 0.0626
- sequence.chain: "GCATATGA"
  PBM E-score: 0.118
- sequence.chain: "CGTGATTC"
  PBM E-score: -0.021
- sequence.chain: "GCCTTCAA"
  PBM E-score: 0.0307
- sequence.chain: "CCATATGA"
  PBM E-score: -0.0943
- sequence.chain: "AAACACCA"
  PBM E-score: -0.00879
- sequence.chain: "GGAGCACC"
  PBM E-score: -0.0566
- sequence.chain: "CTGGCTAC"
  PBM E-score: -0.259
- sequence.chain: "CGTGATTA"
  PBM E-score: 0.303
- sequence.chain: "AAATTTGT"
  PBM E-score: 0.277
- sequence.chain: "CGTGATGA"
  PBM E-score: 0.0624
